test: Noribogaine-methadone interaction study: mortality and postdose observations after oral dosing; conditions: male, Sprague Dawley, rat, in vivo, po, methadone LD50, rats, oral; after 0 mg/kg of noribogaine
measured_parameter: LD50 (mg/kg)
Please state the figure in mg/kg; there is no need to write the unit.

Input: Tell me the measured LD50 of CCC(=O)C(CC(C)N(C)C)(c1ccccc1)c1ccccc1 (stereo not shown) [Methadone, reference compound] , please.
Output: 68.2

----------
test: Noribogaine-methadone interaction study: mortality and postdose observations after oral dosing; conditions: male, Sprague Dawley, rat, in vivo, po, methadone LD50, rats, oral; after 50 mg/kg of noribogaine
measured_parameter: LD50 (mg/kg)
Please state the figure in mg/kg; there is no need to write the unit.

Input: Tell me the measured LD50 of CCC(=O)C(CC(C)N(C)C)(c1ccccc1)c1ccccc1 (stereo not shown) [Methadone, reference compound] , please.
Output: 29.7
